# STUDY_TARGET: Neu5Ac(a2-3)Gal(b1-4)GlcNAc(b1-3)[Neu5Ac(a2-3)Gal(b1-4)GlcNAc(b1-6)]GalNAc
# PROTOCOL_DETAILS: glycan array binding signal (z-score within array); higher = stronger binding
# CONDITION: glycan notation: IUPAC condensed, linker removed
Only a selection was taken, and the strongest signals are over-represented in it overall.
MEASURED_PROPERTY: glycan array binding signal (z-score)
Response field accepts a number only; no unit should be typed.

-- ask // lookup glycan array binding signal (z-score) for Tp0751, 83732 (protein) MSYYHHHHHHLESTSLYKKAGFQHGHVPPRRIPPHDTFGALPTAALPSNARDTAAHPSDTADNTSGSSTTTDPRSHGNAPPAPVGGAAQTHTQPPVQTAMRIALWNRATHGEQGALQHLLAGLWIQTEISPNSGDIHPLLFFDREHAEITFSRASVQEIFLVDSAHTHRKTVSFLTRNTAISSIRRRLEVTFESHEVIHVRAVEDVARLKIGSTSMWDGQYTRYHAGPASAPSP
-- reply -0.246

-- ask Entry Epa20 (Candida glabrata) (protein) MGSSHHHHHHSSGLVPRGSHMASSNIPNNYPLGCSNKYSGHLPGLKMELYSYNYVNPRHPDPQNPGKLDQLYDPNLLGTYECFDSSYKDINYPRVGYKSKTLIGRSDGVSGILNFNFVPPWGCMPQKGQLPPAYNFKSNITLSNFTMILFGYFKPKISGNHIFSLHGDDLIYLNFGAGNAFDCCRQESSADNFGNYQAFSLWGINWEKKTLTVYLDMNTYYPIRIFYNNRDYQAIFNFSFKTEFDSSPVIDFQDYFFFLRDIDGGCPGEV please
-- reply 2.82

-- ask Entry Epa2 (Candida glabrata) (protein) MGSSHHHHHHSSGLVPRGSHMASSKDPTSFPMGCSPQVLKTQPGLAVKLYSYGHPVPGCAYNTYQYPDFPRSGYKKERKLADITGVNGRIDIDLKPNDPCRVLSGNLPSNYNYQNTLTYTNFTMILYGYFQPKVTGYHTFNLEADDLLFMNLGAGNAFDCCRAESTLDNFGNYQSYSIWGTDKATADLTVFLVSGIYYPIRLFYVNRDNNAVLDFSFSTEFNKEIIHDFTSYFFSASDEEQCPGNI please
-- reply 3.03

-- ask Entry Epa21 (Candida glabrata) (protein) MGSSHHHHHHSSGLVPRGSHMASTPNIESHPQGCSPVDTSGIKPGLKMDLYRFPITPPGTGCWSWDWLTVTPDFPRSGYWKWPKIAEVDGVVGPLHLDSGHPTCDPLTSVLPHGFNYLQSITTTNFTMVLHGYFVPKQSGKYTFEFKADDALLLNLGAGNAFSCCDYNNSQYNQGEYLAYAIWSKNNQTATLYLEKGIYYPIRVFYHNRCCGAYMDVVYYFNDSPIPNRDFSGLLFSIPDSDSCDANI please
-- reply 0.888
